assay: Single oral dose, randomized, crossover PK-DDI study of voriconazole with clarithromycin; plasma voriconazole by RP HPLC UV-Vis, non-compartmental analysis; type: in vivo, human; conditions: male, human, plasma, oral, Voriconazole plasma concentration, 8 hrs; Series 2: voriconazole 400 mg along with clarithromycin 500 mg
measurement-type: concentration at 8 h (ng/mL)
A number alone suffices; assume ng/mL.

Input: Item under review: "C[C@@H](c1ncncc1F)[C@](O)(Cn1cncn1)c1ccc(F)cc1F" . Reported concentration at 8 h?
Output: 224

###

assay: Single oral dose, randomized, crossover PK-DDI study of voriconazole with clarithromycin; plasma voriconazole by RP HPLC UV-Vis, non-compartmental analysis; type: in vivo, human; settings: male, human, plasma, oral, Voriconazole plasma concentration, 4 hrs; Series 2: voriconazole 400 mg along with clarithromycin 500 mg
measurement-type: concentration at 4 h
Give the value; after it, write the unit.

Input: Item under review: C[C@@H](c1ncncc1F)[C@](O)(Cn1cncn1)c1ccc(F)cc1F [voriconazole] . Reported concentration at 4 h?
Output: 0.661 µg/mL

###

test: Single oral dose, randomized, crossover PK-DDI study of voriconazole with clarithromycin; plasma voriconazole by RP HPLC UV-Vis, non-compartmental analysis; type: in vivo, human; conditions: male, human, plasma, oral, Voriconazole plasma concentration, 1 hrs; Series 2: voriconazole 400 mg along with clarithromycin 500 mg
measurement-type: concentration at 1 h

Input: Item under review: C[C@@H](c1ncncc1F)[C@](O)(Cn1cncn1)c1ccc(F)cc1F [voriconazole] . Reported concentration at 1 h?
Output: 2040 ng/mL

###

assay: clinical; conditions: male, human, in vivo
measurement-type: Cmax (ng/mL)
A number alone suffices; assume ng/mL.

Input: Item under review: "C[C@@H](c1ncncc1F)[C@](O)(Cn1cncn1)c1ccc(F)cc1F" . Reported Cmax?
Output: 5000

###

assay: Single oral dose, randomized, crossover PK-DDI study of voriconazole with clarithromycin; plasma voriconazole by RP HPLC UV-Vis, non-compartmental analysis; assay type: in vivo, human; settings: male, human, plasma, oral, 400 mg, Voriconazole plasma concentration, 3 hrs; Series 1: voriconazole 400 mg alone
measurement-type: concentration at 3 h (ng/mL)
A number alone suffices; assume ng/mL.

Input: Item under review: "C[C@@H](c1ncncc1F)[C@](O)(Cn1cncn1)c1ccc(F)cc1F" . Reported concentration at 3 h?
Output: 1320

###

test: Single oral dose, randomized, crossover PK-DDI study of voriconazole with clarithromycin; plasma voriconazole by RP HPLC UV-Vis, non-compartmental analysis; format: in vivo, human; details: male, human, plasma, oral, 400 mg, Voriconazole plasma concentration, 1.5 hrs; Series 1: voriconazole 400 mg alone
measurement-type: concentration at 1.5 h (ng/mL)
A number alone suffices; assume ng/mL.

Input: Item under review: "C[C@@H](c1ncncc1F)[C@](O)(Cn1cncn1)c1ccc(F)cc1F" . Reported concentration at 1.5 h?
Output: 1890

###

assay: Single oral dose, randomized, crossover PK-DDI study of voriconazole with clarithromycin; plasma voriconazole by RP HPLC UV-Vis, non-compartmental analysis; type: in vivo, human; conditions: human, plasma, po, 400 mg
measurement-type: AUC(0-inf)
Give the value; after it, write the unit.

Input: Item under review: "C[C@@H](c1ncncc1F)[C@](O)(Cn1cncn1)c1ccc(F)cc1F" . Reported AUC(0-inf)?
Output: 9090 ng·h/mL

###

experiment: Single oral dose, randomized, crossover PK-DDI study of voriconazole with clarithromycin; plasma voriconazole by RP HPLC UV-Vis, non-compartmental analysis; assay type: in vivo, human; settings: human, plasma, po, 400 mg
measurement-type: AUC(0-t) (ng·h/mL)
A number alone suffices; assume ng·h/mL.

Input: Item under review: "C[C@@H](c1ncncc1F)[C@](O)(Cn1cncn1)c1ccc(F)cc1F" . Reported AUC(0-t)?
Output: 8600

###

test: Single oral dose, randomized, crossover PK-DDI study of voriconazole with clarithromycin; plasma voriconazole by RP HPLC UV-Vis, non-compartmental analysis; assay type: in vivo, human; conditions: male, human, plasma, oral, 400 mg, Voriconazole plasma concentration, 2 hrs; Series 1: voriconazole 400 mg alone
measurement-type: concentration at 2 h
Give the value; after it, write the unit.

Input: Item under review: C[C@@H](c1ncncc1F)[C@](O)(Cn1cncn1)c1ccc(F)cc1F [voriconazole] . Reported concentration at 2 h?
Output: 2520 ng/mL

###

experiment: Single oral dose, randomized, crossover PK-DDI study of voriconazole with clarithromycin; plasma voriconazole by RP HPLC UV-Vis, non-compartmental analysis; type: in vivo, human; conditions: male, human, plasma, oral, Voriconazole plasma concentration, 3 hrs; Series 2: voriconazole 400 mg along with clarithromycin 500 mg
measurement-type: concentration at 3 h (ng/mL)
A number alone suffices; assume ng/mL.

Input: Item under review: "C[C@@H](c1ncncc1F)[C@](O)(Cn1cncn1)c1ccc(F)cc1F" . Reported concentration at 3 h?
Output: 995

###

assay: Single oral dose, randomized, crossover PK-DDI study of voriconazole with clarithromycin; plasma voriconazole by RP HPLC UV-Vis, non-compartmental analysis; assay type: in vivo, human; details: male, human, plasma, oral, Voriconazole plasma concentration, 1.5 hrs; Series 2: voriconazole 400 mg along with clarithromycin 500 mg
measurement-type: concentration at 1.5 h (ng/mL)
A number alone suffices; assume ng/mL.

Input: Item under review: "C[C@@H](c1ncncc1F)[C@](O)(Cn1cncn1)c1ccc(F)cc1F" . Reported concentration at 1.5 h?
Output: 3840

###

test: Single oral dose, randomized, crossover PK-DDI study of voriconazole with clarithromycin; plasma voriconazole by RP HPLC UV-Vis, non-compartmental analysis; type: in vivo, human; conditions: male, human, plasma, oral, 400 mg, Voriconazole plasma concentration, 24 hrs; Series 1: voriconazole 400 mg alone
measurement-type: concentration at 24 h (ng/mL)
A number alone suffices; assume ng/mL.

Input: Item under review: C[C@@H](c1ncncc1F)[C@](O)(Cn1cncn1)c1ccc(F)cc1F [voriconazole] . Reported concentration at 24 h?
Output: 39.1

###

assay: Single oral dose, randomized, crossover PK-DDI study of voriconazole with clarithromycin; plasma voriconazole by RP HPLC UV-Vis, non-compartmental analysis; format: in vivo, human; settings: male, human, plasma, oral, Voriconazole plasma concentration, 2 hrs; Series 2: voriconazole 400 mg along with clarithromycin 500 mg
measurement-type: concentration at 2 h (µg/mL)
A number alone suffices; assume µg/mL.

Input: Item under review: "C[C@@H](c1ncncc1F)[C@](O)(Cn1cncn1)c1ccc(F)cc1F" . Reported concentration at 2 h?
Output: 2.5
